Examples of compounds with documented EC50 follow.
Tested on: A2780 ovarian cancer cells
Experiment: Cellular proliferation in A2780 cells, Cell Titer Glo (Biological Method 4)
Type: cell-based
Details: Homo sapiens; ovarian cancer cell line A2780
Parameter: EC50

Smiles Notation	Observed
COCCNc1cc(-c2cnc(N)nc2)nc(N2CCOCC2)n1	< 1 µM
CS(=O)(=O)Nc1ncccc1-c1cc(-c2ccc(N)nc2)nc(N2CCOCC2)n1	< 1 µM
Nc1ccc(-c2cc(Nc3ccncc3C(F)(F)F)nc(N3CCOCC3)n2)cn1	< 1 µM
CS(=O)(=O)N1CCC(Oc2cc(-c3cnc(N)cc3C(F)(F)F)nc(N3CCOCC3)n2)CC1	< 10 µM

---

Test system: A2780 ovarian cancer cells
Experiment: Cellular proliferation in A2780 cells, Cell Titer Glo (Biological Method 4)
Format: cell-based
Conditions: Homo sapiens; ovarian cancer cell line A2780, Biological Method 4
pEC50: −log10 of the molar value.
// pEC50 lookup, one value per entry
Parameter: pEC50

Compound	Observed
CN1CCN(S(=O)(=O)c2cccc(Nc3cc(-c4cnc(N)cc4C(F)(F)F)nc(N4CCOCC4)n3)c2)CC1 [Compound 315]	> 5.00
CS(=O)(=O)Nc1ncccc1-c1cc(-c2cnc(N)nc2N)nc(N2CCOCC2)n1 [Compound 260]	> 5.00
Nc1ncc(-c2cc(Nc3ccccc3C(F)(F)F)nc(N3CCOCC3)n2)cn1 [Compound 393]	> 5.00
NC(=O)c1ccnc(Nc2cc(-c3cnc(N)cc3C(F)(F)F)nc(N3CCOCC3)n2)c1 [Compound 242]	> 5.00
Nc1ncc(-c2cc(NC(=O)[C@@H]3CCCO3)nc(N3CCOCC3)n2)cn1 [Compound 290]	> 5.00
COc1cccc(CCNc2cc(-c3ccc(N)nc3)nc(N3CCOCC3)n2)c1 [Compound 303]	> 5.00
Nc1cc(C(F)(F)F)c(-c2cc(Nc3cccc(S(=O)(=O)N4CCCCC4)c3)nc(N3CCOCC3)n2)cn1 [Compound 207]	> 6.00
Nc1ncc(-c2cc(C(=O)N3CCCCC3)nc(N3CCOCC3)n2)cn1 [Compound 234]	> 4.60

---

Molecular target: PI3 kinase alpha (Homo sapiens)
Sequence (P42336 whole entry): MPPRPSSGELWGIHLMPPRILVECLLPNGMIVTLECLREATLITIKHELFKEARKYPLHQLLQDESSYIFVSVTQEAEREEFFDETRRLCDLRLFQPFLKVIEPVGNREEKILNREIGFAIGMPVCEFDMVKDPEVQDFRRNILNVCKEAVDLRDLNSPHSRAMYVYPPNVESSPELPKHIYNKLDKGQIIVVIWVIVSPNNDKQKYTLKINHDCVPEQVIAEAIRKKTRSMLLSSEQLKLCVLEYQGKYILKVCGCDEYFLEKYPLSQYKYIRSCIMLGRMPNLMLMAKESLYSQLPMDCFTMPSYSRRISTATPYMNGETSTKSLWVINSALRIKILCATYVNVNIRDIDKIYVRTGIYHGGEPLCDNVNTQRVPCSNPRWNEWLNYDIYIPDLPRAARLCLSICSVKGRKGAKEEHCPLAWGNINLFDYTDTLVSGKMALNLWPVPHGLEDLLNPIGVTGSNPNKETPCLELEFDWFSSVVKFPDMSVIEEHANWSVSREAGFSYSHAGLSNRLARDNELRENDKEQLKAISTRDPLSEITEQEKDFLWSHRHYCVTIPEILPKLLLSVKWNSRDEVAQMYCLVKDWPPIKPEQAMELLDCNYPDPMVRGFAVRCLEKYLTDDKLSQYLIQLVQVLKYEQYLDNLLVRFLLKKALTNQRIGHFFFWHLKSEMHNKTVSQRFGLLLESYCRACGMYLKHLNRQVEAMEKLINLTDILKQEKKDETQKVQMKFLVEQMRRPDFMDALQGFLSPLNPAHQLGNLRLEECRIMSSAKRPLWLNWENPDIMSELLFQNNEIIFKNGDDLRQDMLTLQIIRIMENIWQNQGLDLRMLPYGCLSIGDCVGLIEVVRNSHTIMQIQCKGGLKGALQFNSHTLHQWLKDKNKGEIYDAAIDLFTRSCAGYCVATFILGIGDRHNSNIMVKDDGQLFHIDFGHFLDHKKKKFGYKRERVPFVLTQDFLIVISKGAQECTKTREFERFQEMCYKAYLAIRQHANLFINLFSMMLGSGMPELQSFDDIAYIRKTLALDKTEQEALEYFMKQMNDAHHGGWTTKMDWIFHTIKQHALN
Sequence (P27986 whole entry partner): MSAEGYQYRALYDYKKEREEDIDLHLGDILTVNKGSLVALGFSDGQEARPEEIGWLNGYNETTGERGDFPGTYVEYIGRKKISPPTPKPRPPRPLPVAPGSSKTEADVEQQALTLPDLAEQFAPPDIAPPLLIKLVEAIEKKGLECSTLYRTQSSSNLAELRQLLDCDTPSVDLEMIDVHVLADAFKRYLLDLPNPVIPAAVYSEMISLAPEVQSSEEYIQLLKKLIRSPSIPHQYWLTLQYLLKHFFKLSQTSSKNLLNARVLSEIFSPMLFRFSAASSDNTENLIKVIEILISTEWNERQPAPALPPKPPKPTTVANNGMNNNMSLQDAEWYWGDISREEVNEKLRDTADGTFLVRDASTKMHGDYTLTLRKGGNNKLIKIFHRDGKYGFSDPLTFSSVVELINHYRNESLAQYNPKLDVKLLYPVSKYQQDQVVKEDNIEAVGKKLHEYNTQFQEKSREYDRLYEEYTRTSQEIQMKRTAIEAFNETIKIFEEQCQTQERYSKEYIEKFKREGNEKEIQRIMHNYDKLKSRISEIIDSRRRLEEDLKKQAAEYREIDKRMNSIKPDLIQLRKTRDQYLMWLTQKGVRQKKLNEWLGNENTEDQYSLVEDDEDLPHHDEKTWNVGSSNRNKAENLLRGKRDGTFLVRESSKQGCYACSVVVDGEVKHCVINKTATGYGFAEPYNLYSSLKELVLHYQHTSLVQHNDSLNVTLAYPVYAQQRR
Test: PI3K ATP depletion assay (Biological Method 1, Assay 3; KinaseGlo luminescence)
Type: biochemical
Conditions: ATP depletion assay; read-out: PI3 Kinase Alpha, IC50
Form field: IC50 (one value per entry).

Smiles Notation	IC50
CN(C)CCNC(=O)c1cnc(N2CCOCC2)nc1-c1cnc(N)nc1	< 10000 nM
CC(C)(C)OC(=O)N1CCC[C@@H](Oc2cc(-c3cnc(N)cc3C(F)(F)F)nc(N3CCOCC3)n2)C1	< 1000 nM
Nc1ccc(-c2cc(Nc3ccc(NCCN4CCCC4)nc3)nc(N3CCOCC3)n2)cn1	< 1000 nM
CS(=O)(=O)Nc1cc(N)ncc1-c1cc(Nc2cnc3ccccc3c2)nc(N2CCOCC2)n1	< 1000 nM

---

This section presents molecules with their documented pEC50 values.
Tested on: A2780 ovarian cancer cells
Experiment: Cellular proliferation in A2780 cells, Cell Titer Glo (Biological Method 4)
Assay type: cell-based
Details: Homo sapiens; ovarian cancer cell line A2780
pEC50: −log10 of the molar value.
Parameter: pEC50

Molecule	Observed
Cc1c(-c2ccc(Nc3ncc(-c4ccccc4)s3)nc2)nc(N2CCOCC2)nc1-c1cnc(N)nc1 [Compound 194]	> 5.00
Nc1ccc(-c2cc(-n3ncc4c(N)cccc43)nc(N3CCOCC3)n2)cn1 [Compound 168]	> 6.00
CC(C)(C)OC(=O)N1CCC(Oc2cc(-c3cnc(N)nc3C(F)(F)F)nc(N3CCOCC3)n2)CC1 [Compound 27]	> 6.00
COc1ccc2cc(Nc3cc(-c4ccc(N)nc4)nc(N4CCOCC4)n3)cnc2c1 [Compound 494]	> 4.60

---

Examples of molecules with documented pEC50 follow.
Tested on: A2780 ovarian cancer cells
Experiment: Cellular proliferation in A2780 cells, Cell Titer Glo (Biological Method 4)
Format: cell-based
Conditions: Homo sapiens; ovarian cancer cell line A2780
Experimental: In addition, many of the compounds of Table 1 were tested to determine their inhibitory activity in a cellular proliferation assay according to Biological Method 4. The ability of the compounds of the invention to inhibit cellular proliferation were determined by using Cell Titer Glo, a commercially available assay from Promega Corporation. […]
pEC50: −log10 of the molar value.
Parameter: pEC50

Smiles Notation	Parameter	Observed
CS(=O)(=O)Nc1nc2ccccc2cc1-c1cc(-c2ccc(N)nc2)nc(N2CCOCC2)n1	pEC50	> 4.60
Nc1ncc(-c2cc(Nc3ccc4c(c3)OCC(=O)N4)nc(N3CCOCC3)n2)cn1	pEC50	> 6.00
Nc1cc(C(F)(F)F)c(-c2cc(Cl)nc(N3CCOCC3)n2)cn1	pEC50	> 4.60
Nc1cc(C(F)(F)F)c(-c2cc(Nc3ccc(OC4CCNCC4)nc3)nc(N3CCOCC3)n2)cn1	pEC50	> 6.00
Nc1ncc(-c2cc(Nc3ccnc4cc(C(F)(F)F)ccc34)nc(N3CCOCC3)n2)cn1	pEC50	> 6.00
CS(=O)(=O)c1ccc(Nc2cc(-c3cnc(N)cc3C(F)(F)F)nc(N3CCOCC3)n2)cn1	pEC50	> 5.00
COC(=O)N1CCC[C@H](Oc2cc(-c3cnc(N)cc3C(F)(F)F)nc(N3CCOCC3)n2)C1	pEC50	> 5.00
Nc1ccc(-c2cc(Nc3cccc(-c4cnco4)c3)nc(N3CCOCC3)n2)cn1	pEC50	> 5.00
Nc1cc(C(F)(F)F)c(-c2cc(-c3ccccc3S(N)(=O)=O)nc(N3CCOCC3)n2)cn1	pEC50	> 5.00
Nc1ncc(-c2cc(N3CCCC3)nc(N3CCOCC3)n2)cn1	pEC50	> 5.00
CS(=O)(=O)Nc1ncccc1-c1cc(-c2cnc(N)nc2C(F)(F)F)nc(N2CCOCC2)n1	pEC50	> 6.00
COC(=O)N1CCC(Oc2cc(-c3cnc(N)nc3N)nc(N3CCOCC3)n2)CC1	pEC50	> 6.00
CCOc1cc(Nc2cc(-c3ccc(N)nc3)nc(N3CCOCC3)n2)ccn1	pEC50	> 6.00
N#Cc1cnc(N2CCOCC2)nc1-c1cnc(N)nc1	pEC50	> 4.60
COc1nc(N)ncc1-c1cc(Nc2cnc3ccccc3c2)nc(N2CCOCC2)n1	pEC50	> 6.00
Nc1ncc(-c2cc(Nc3ccnc4ccc(C(F)(F)F)cc34)nc(N3CCOCC3)n2)cn1	pEC50	> 5.00
Nc1cc(C(F)(F)F)c(-c2cc(O[C@H]3CCOC3)nc(N3CCOCC3)n2)cn1	pEC50	> 5.00
Nc1ncc(-c2cc(Nc3ccc4c(c3)NC(=O)CO4)nc(N3CCOCC3)n2)cn1	pEC50	> 5.00
Nc1ncc(-c2cc(N3CCc4ccccc4C3)nc(N3CCOCC3)n2)cn1	pEC50	> 5.00
CS(=O)(=O)c1ccc(Nc2cc(-c3cnc(N)cc3C(F)(F)F)nc(N3CCOCC3)n2)cc1	pEC50	> 5.00
CCOc1cc(Nc2cc(-c3cnc(N)cc3C(F)(F)F)nc(N3CCOCC3)n2)ccn1	pEC50	> 5.00
Nc1ncc(-c2cc(Nc3ccc4[nH]ncc4c3)nc(N3CCOCC3)n2)cn1	pEC50	> 5.00
Cc1cc(Nc2cc(-c3cnc(N)nc3N)nc(N3CCOCC3)n2)ccn1	pEC50	> 6.00
Cc1nc(N)ncc1-c1cc(Nc2ccc3c(c2)OCCO3)nc(N2CCOCC2)n1	pEC50	> 5.00
Nc1ncc(-c2cc(N[C@@H]3CN4CCC3CC4)nc(N3CCOCC3)n2)cn1	pEC50	> 5.00
Nc1ncc(-c2cc(O[C@@H]3CCOC3)nc(N3CCOCC3)n2)c(C(F)(F)F)n1	pEC50	> 5.00
Cc1nc(N)ncc1-c1nc(N2CCOCC2)nc(Nc2cnc3ccccc3c2)c1C	pEC50	> 6.00
Nc1ncc(-c2cc(Nc3cccc(F)c3)nc(N3CCOCC3)n2)cn1	pEC50	> 5.00
N#Cc1cc(N)ncc1-c1cc(Nc2ccncc2C(F)(F)F)nc(N2CCOCC2)n1	pEC50	> 6.00
CC(C)OC(=O)N1CCC[C@@H](Oc2cc(-c3cnc(N)nc3N)nc(N3CCOCC3)n2)C1	pEC50	> 5.00
CC(=O)N1CC[C@H](Oc2cc(-c3cnc(N)cc3C(F)(F)F)nc(N3CCOCC3)n2)C1	pEC50	> 5.00
Nc1ncc(-c2cc(O[C@@H]3CCOC3)nc(N3CCOCC3)n2)c(N)n1	pEC50	> 6.00
N#Cc1cc(-c2ccc(N)nc2)nc(N2CCOCC2)n1	pEC50	> 4.60

---

# EC50 listing for each entry below
Test system: A2780 ovarian cancer cells
Assay: Cellular proliferation in A2780 cells, Cell Titer Glo (Biological Method 4)
Assay type: cell-based
Details: Homo sapiens; ovarian cancer cell line A2780, Biological Method 4
Protocol: In addition, many of the compounds of Table 1 were tested to determine their inhibitory activity in a cellular proliferation assay according to Biological Method 4. The ability of the compounds of the invention to inhibit cellular proliferation were determined by using Cell Titer Glo, a commercially available assay from Promega Corporation. […]

Compound	EC50
CN(c1cc(-c2ccc(N)nc2)nc(N2CCOCC2)n1)C1CCOCC1 [Compound 368]	< 10 µM
Nc1cc(C(F)(F)F)c(-c2cc(N3CCS(=O)(=O)CC3)nc(N3CCOCC3)n2)cn1 [Compound 331]	< 25 µM
CN1CCC(Oc2ccc(Nc3cc(-c4ccc(N)nc4)nc(N4CCOCC4)n3)cn2)CC1 [Compound 276]	< 10 µM
Nc1ccc(-c2cc(Nc3ccc(-c4cnco4)cc3)nc(N3CCOCC3)n2)cn1 [Compound 357]	< 25 µM
Nc1ccc(-c2cc(N3CCOC(c4ccccc4)C3)nc(N3CCOCC3)n2)cn1 (stereo not drawn) [Compound 371]	< 10 µM
CS(=O)(=O)c1cccc(Nc2cc(-c3cnc(N)cc3C(F)(F)F)nc(N3CCOCC3)n2)c1 [Compound 238]	< 10 µM
Nc1ccc(-c2cc(Nc3ccc(S(=O)(=O)C(F)(F)F)cc3)nc(N3CCOCC3)n2)cn1 [Compound 358]	< 10 µM
Nc1ncc(-c2cc(Nc3cnc4ccccc4c3)nc(N3CCOCC3)n2)cc1F [Compound 202]	< 1 µM
NC(=O)C1CN(c2cc(-c3cnc(N)cc3C(F)(F)F)nc(N3CCOCC3)n2)CCO1 (stereo not drawn) [Compound 320]	< 10 µM
Nc1cc(C(F)(F)F)c(-c2cc(Oc3ccc4ncccc4c3)nc(N3CCOCC3)n2)cn1 [Compound 217]	< 10 µM
Nc1ccc(-c2cc(Nc3cc(Cl)ccn3)nc(N3CCOCC3)n2)cn1 [Compound 349]	< 25 µM
Nc1cc(C(F)(F)F)c(-c2cc(Nc3ccc(OC4CCOC4)nc3)nc(N3CCOCC3)n2)cn1 (stereo not drawn) [Compound 268]	< 10 µM
Nc1cc(C(F)(F)F)c(-c2cc(-c3cncc(S(=O)(=O)CCO)c3)nc(N3CCOCC3)n2)cn1 [Compound 265]	< 10 µM
CN1CCC(Oc2ccc(-c3cc(-c4cnc(N)nc4)nc(N4CCOCC4)n3)cn2)CC1 [Compound 277]	< 10 µM
CCN(CC)C(=O)Cc1csc(Nc2cc(-c3cnc(N)cc3C(F)(F)F)nc(N3CCOCC3)n2)n1 [Compound 218]	< 10 µM
CC(=O)Nc1cccc(-c2cc(-c3ccc(N)nc3)nc(N3CCOCC3)n2)c1 [Compound 250]	< 10 µM
Nc1ncc(-c2cc(C(=O)Nc3cccnc3)nc(N3CCOCC3)n2)cn1 [Compound 231]	< 10 µM
N#Cc1cc(N)ncc1-c1cc(-c2cnc(N)cc2C#N)nc(N2CCOCC2)n1 [Compound 317]	< 10 µM
CN1CCN(Cc2cncc(-c3cc(-c4ccc(N)nc4)nc(N4CCOCC4)n3)c2)CC1 [Compound 273]	< 10 µM
CN(C)C(=O)C1CN(c2cc(-c3cnc(N)cc3C(F)(F)F)nc(N3CCOCC3)n2)CCO1 (stereo not drawn) [Compound 326]	< 25 µM
Nc1cc(C(F)(F)F)c(-c2cc(-c3cncc(CN4CCCC4)c3)nc(N3CCOCC3)n2)cn1 [Compound 264]	< 10 µM
N#Cc1ccnc(Nc2cc(-c3cnc(N)cc3C(F)(F)F)nc(N3CCOCC3)n2)c1 [Compound 239]	< 10 µM
Nc1ccc(-c2cc(Nc3ccc(F)cc3)nc(N3CCOCC3)n2)cn1 [Compound 305]	< 10 µM
CS(=O)(=O)c1ccc(Nc2cc(-c3cnc(N)nc3N)nc(N3CCOCC3)n2)cn1 [Compound 214]	< 25 µM
COc1cccc(Nc2cc(-c3cnc(N)nc3)nc(N3CCOCC3)n2)c1 [Compound 308]	< 10 µM
COc1nc2ccccc2cc1Nc1cc(-c2ccc(N)nc2)nc(N2CCOCC2)n1 [Compound 287]	< 10 µM
N#Cc1cc(-c2cnc(N)cc2C(F)(F)F)nc(N2CCOCC2)n1 [Compound 209]	< 10 µM
Nc1ccc(-c2cc(Nc3cccnc3)nc(N3CCOCC3)n2)cn1 [Compound 378]	< 10 µM
Nc1cc(C(F)(F)F)c(-c2cc(Nc3ccc(-c4nn[nH]n4)cc3)nc(N3CCOCC3)n2)cn1 [Compound 281]	< 25 µM
Nc1cc(C(F)(F)F)c(-c2cc(N3CC[C@H](F)C3)nc(N3CCOCC3)n2)cn1 [Compound 332]	< 1 µM
COc1ccc(Nc2cc(-c3cnc(N)cc3C(F)(F)F)nc(N3CCOCC3)n2)cn1 [Compound 199]	< 10 µM
Nc1ccc(-c2cc(Nc3ccc4cn[nH]c4c3)nc(N3CCOCC3)n2)cn1 [Compound 227]	< 10 µM
Nc1ccc(-c2cc(-c3ccncc3)nc(N3CCOCC3)n2)cn1 [Compound 246]	< 10 µM
